target: FLT3 (Homo sapiens); assay: Inhibition of FLT3 phosphorylation
Sequence (P36888 27-993, species assumed): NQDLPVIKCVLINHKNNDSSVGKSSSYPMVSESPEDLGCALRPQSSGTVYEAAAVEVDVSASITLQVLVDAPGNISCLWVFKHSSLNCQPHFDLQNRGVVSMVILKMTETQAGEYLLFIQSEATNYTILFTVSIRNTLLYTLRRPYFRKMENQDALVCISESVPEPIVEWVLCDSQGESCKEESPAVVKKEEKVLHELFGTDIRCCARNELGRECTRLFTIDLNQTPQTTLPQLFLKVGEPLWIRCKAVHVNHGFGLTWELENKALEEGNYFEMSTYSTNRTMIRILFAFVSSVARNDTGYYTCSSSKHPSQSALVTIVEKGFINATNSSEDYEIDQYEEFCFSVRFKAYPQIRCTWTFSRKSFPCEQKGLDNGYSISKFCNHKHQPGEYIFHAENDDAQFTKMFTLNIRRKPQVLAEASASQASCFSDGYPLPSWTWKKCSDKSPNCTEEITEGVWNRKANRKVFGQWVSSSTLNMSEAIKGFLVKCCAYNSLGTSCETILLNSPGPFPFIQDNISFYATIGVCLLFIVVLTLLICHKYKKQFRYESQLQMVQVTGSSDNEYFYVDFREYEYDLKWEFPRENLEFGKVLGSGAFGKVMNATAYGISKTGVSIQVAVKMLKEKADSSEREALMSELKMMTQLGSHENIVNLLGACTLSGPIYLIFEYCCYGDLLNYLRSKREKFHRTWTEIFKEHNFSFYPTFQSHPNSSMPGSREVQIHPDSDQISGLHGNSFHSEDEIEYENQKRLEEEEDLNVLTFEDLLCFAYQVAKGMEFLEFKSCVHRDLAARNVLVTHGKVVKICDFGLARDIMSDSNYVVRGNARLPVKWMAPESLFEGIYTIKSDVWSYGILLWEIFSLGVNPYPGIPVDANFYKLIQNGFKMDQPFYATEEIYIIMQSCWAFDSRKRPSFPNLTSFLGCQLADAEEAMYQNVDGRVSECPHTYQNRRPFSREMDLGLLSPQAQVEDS
Attribute measured: EC50

In [3]: df
Out[3]:
                               entry_smiles  result
0  c1cnc2ccc(Nc3nc(NC4CC4)c4nc[nH]c4n3)cc2c1  ~49 nM

---

biological target: KDR (VEGFR-2) (Homo sapiens, UniProt P35968); assay: Inhibition of KDR phosphorylation
Sequence (P35968 20-1356, species assumed): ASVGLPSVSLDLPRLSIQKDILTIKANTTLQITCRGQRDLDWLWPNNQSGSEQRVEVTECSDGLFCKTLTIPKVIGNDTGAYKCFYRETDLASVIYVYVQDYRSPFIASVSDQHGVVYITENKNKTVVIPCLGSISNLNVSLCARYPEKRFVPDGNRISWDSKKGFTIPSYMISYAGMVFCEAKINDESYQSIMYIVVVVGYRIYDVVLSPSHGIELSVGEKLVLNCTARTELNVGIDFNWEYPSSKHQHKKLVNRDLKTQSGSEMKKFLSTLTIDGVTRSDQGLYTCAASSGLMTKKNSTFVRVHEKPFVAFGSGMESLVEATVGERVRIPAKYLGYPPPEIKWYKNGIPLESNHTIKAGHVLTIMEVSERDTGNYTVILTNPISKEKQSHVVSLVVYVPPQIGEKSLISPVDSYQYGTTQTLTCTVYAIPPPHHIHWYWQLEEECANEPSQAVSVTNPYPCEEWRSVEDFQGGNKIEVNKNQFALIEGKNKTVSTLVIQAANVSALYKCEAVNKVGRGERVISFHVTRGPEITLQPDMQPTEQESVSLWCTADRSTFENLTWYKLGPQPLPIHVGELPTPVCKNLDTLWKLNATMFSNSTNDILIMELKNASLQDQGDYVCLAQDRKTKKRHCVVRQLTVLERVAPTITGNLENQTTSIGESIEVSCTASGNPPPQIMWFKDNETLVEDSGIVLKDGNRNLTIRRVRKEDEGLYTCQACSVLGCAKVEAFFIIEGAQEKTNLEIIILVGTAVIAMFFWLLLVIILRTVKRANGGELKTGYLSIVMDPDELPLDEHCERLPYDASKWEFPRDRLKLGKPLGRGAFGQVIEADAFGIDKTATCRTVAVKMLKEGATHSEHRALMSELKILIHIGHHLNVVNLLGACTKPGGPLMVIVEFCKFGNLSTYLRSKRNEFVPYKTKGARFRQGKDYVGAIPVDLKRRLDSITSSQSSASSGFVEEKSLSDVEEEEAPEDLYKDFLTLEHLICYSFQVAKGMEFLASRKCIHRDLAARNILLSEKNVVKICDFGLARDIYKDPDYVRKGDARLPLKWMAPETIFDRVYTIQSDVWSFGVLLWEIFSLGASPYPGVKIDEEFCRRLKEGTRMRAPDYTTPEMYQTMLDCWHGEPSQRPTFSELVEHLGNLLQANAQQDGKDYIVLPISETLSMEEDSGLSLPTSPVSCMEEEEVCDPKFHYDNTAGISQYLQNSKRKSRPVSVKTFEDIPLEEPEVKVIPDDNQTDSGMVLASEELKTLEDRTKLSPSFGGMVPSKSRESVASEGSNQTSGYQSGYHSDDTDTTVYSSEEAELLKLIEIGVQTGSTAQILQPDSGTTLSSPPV
Attribute measured: EC50

                                   compound  attribute_measured    result
0  c1cnc2ccc(Nc3nc(NC4CC4)c4nc[nH]c4n3)cc2c1 [Compound A]                EC50  ~1000 nM

Source listed as patent US20230087844A1.
